target: HCV NS3-4A serine protease (full-length NS3-4A protein, genotype 1a, strain HCV-1) (Hepatitis C virus genotype 1a, UniProt P26664); construct: using the full-length NS3-4A protein (genotype 1a, strain HCV-1); assay: HCV NS3-4A protease assay; type: biochemical; conditions: read-out: Protease IC50
Sequence (P26664 1658-1711): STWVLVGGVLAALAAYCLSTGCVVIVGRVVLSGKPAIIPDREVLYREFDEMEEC
Sequence (P26664 1027-1657): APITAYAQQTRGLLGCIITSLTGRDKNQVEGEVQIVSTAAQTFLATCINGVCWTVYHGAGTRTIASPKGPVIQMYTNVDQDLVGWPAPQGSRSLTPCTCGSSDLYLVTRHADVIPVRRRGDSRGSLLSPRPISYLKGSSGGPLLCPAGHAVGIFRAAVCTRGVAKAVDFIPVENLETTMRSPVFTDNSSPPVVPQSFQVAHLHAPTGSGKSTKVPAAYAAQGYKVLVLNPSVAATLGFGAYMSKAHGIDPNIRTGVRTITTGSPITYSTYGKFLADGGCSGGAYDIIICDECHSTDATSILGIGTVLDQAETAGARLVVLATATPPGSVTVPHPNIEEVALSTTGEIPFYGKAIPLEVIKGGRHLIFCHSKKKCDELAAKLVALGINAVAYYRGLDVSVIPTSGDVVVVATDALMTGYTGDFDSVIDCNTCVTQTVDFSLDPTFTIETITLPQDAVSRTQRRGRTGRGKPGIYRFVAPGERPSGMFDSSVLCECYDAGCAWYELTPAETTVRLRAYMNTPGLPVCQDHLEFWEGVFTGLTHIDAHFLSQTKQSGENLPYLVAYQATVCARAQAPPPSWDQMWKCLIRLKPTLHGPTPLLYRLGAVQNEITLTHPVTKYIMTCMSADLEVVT
Provide the reported log10 IC50 of each item.
Values below are the log10 of the recorded IC50, with nM as the unit.

What the record says about C=C[C@@H]1C[C@]1(NC(=O)[C@@H]1C[C@@]2(CN1C(=O)[C@@H](NC(=O)N[C@H](C(=O)N1CCOCC1)C(C)(C)C)C(C)(C)C)C(C)(C)C21CCC1)C(=O)NS(=O)(=O)C1CC1 : log10 IC50 is 1.18

What the record says about C=C[C@@H]1C[C@]1(NC(=O)[C@@H]1C[C@@]2(CN1C(=O)[C@@H](NC(=O)c1ccc3cnccc3n1)C(C)(C)C)C(C)(C)C21CCC1)C(=O)NS(=O)(=O)C1CC1 : log10 IC50 is 2.30

What the record says about C=C[C@@H]1C[C@]1(NC(=O)[C@@H]1C[C@@]2(CN1C(=O)[C@@H](NC(=O)N[C@H](C(=O)NC)C(C)(C)C)C(C)(C)C)C(C)(C)C21CCC1)C(=O)NS(=O)(=O)C1CC1 : log10 IC50 is 1.48

What the record says about C=C[C@@H]1C[C@]1(NC(=O)[C@@H]1C[C@@]2(CN1C(=O)[C@@H](NC(=O)[C@@H](NS(C)(=O)=O)C(C)(C)C)C(C)(C)C)C(C)(C)C21CCC1)C(=O)NS(=O)(=O)C1CC1 : log10 IC50 is 1.81

What the record says about C=C[C@@H]1C[C@]1(NC(=O)[C@@H]1C[C@@]2(CN1C(=O)[C@@H](NC(=O)[C@@H](NS(=O)(=O)N(C)C)C(C)(C)C)C(C)(C)C)C(C)(C)C21CCC1)C(=O)NS(=O)(=O)C1CC1 : log10 IC50 is 1.98

What the record says about C=C[C@@H]1C[C@]1(NC(=O)[C@@H]1C[C@@]2(CN1C(=O)[C@@H](NC(=O)NC13CC4CC(CC(C4)C1)C3)C(C)(C)C)C(C)(C)C21CCC1)C(=O)NS(=O)(=O)C1CC1 : log10 IC50 is 1.65

What the record says about C=C[C@@H]1C[C@]1(NC(=O)[C@@H]1C[C@@]2(CN1C(=O)[C@@H](NCc1nc3ccccc3n1C)C(C)(C)C)C(C)(C)C21CCC1)C(=O)NS(=O)(=O)C1CC1 : log10 IC50 is 2.60

What the record says about C=C[C@@H]1C[C@]1(NC(=O)[C@@H]1C[C@@]2(CN1C(=O)[C@@H](NS(=O)(=O)c1nccn1C)C(C)(C)C)C(C)(C)C21CCC1)C(=O)NS(=O)(=O)C1CC1 : log10 IC50 is 2.40

What the record says about C=C[C@@H]1C[C@]1(NC(=O)[C@@H]1C[C@@]2(CN1C(=O)[C@@H](CC(=O)OC(C)(C)C)C(C)(C)C)C(C)(C)C21CCC1)C(=O)NS(=O)(=O)C1CC1 : log10 IC50 is 2.65

What the record says about C=C[C@@H]1C[C@]1(NC(=O)[C@@H]1C[C@@]2(CN1C(=O)[C@@H](NC(=O)N[C@H](CC(=O)N1CCOCC1)C(C)(C)C)C(C)(C)C)C(C)(C)C21CCC1)C(=O)NS(=O)(=O)C1CC1 : log10 IC50 is 3.33

What the record says about C=C[C@@H]1C[C@]1(NC(=O)[C@@H]1C[C@@]2(CN1C(=O)[C@@H](NC(=O)N[C@H](C(=O)N(C)C)C(C)(C)C)C(C)(C)C)C(C)(C)C21CCC1)C(=O)NS(=O)(=O)C1CC1 : log10 IC50 is 0.90

What the record says about C=C[C@@H]1C[C@]1(NC(=O)[C@@H]1C[C@@]2(CN1C(=O)[C@@H](NC(=O)c1cocn1)C(C)(C)C)C(C)(C)C21CCC1)C(=O)NS(=O)(=O)C1CC1 : log10 IC50 is 3.33

What the record says about C=C[C@@H]1C[C@]1(NC(=O)[C@@H]1C[C@@]2(CN1C(=O)[C@@H](NC(=O)[C@@H](NS(=O)(=O)c1ncn[nH]1)C(C)(C)C)C(C)(C)C)C(C)(C)C21CCC1)C(=O)NS(=O)(=O)C1CC1 : log10 IC50 is 2.30

What the record says about C=C[C@@H]1C[C@]1(NC(=O)[C@@H]1C[C@@]2(CN1C(=O)[C@@H](NC(=O)[C@@H](NS(=O)(=O)C(C)C)C(C)(C)C)C(C)(C)C)C(C)(C)C21CCC1)C(=O)NS(=O)(=O)C1CC1 : log10 IC50 is 2.60

What the record says about C=C[C@@H]1C[C@]1(NC(=O)[C@@H]1C[C@@]2(CN1C(=O)[C@@H](NC(=O)C1CCCN(C(C)=O)C1)C(C)(C)C)C(C)(C)C21CCC1)C(=O)NS(=O)(=O)C1CC1 (stereo partly drawn) : log10 IC50 is 2.54

What the record says about C=C[C@@H]1C[C@]1(NC(=O)[C@@H]1C[C@@]2(CN1C(=O)[C@@H](NC(=O)[C@@H](NS(=O)(=O)Cc1ccccc1)C(C)(C)C)C(C)(C)C)C(C)(C)C21CCC1)C(=O)NS(=O)(=O)C1CC1 : log10 IC50 is 1.30

What the record says about C=C[C@@H]1C[C@]1(NC(=O)[C@@H]1C[C@@]2(CN1C(=O)[C@@H](NC(=O)N[C@H](CN(C)S(=O)(=O)N(C)C)C(C)(C)C)C(C)(C)C)C(C)(C)C21CCC1)C(=O)NS(=O)(=O)C1CC1 : log10 IC50 is 0.30

What the record says about C=C[C@@H]1C[C@]1(NC(=O)[C@@H]1C[C@@]2(CN1C(=O)[C@@H](NC(=O)CC1CCCCC1)C(C)(C)C)C(C)(C)C21CCC1)C(=O)NS(=O)(=O)C1CC1 : log10 IC50 is 2.00
